These entries and their values trace back to patent US20160200815A1.

target: T1, hTIM3-Fc WT (human); assay: ELISA, construct coated on plate
T1 construct: also called hTIM-3-hFc
measure.name: Absorbance at 450 nm (A450)

mAb91 (antibody, V domains shown, Mouse hybridoma antibody) VH: DVQFQESGPGLVKPSQSLSLTCSVTGYSITSGYYWNWIRQFPGNKLEWMGYISYDGSNNYNPSLKNRISITRDTSKNQFFLKLNSVTTEDTATYYCGRDGPYYYGSSYGYFDVWGTGTTVTVSS VL: DIVMTQAESSVPVTPGESVSISCRSSKSLLHSNGNTYLYWFLQRPGQSPQLLIHRMSNLASGVPDRFSGSGSGTAFTLRISRVEAEDMGVYYCMQHLEYPCTFGGGTKLEIK | 1.57
